- Organism: Rattus norvegicus
- EXPERIMENTAL DETAILS: Percent of maximal contractile response to compound without phenoxybenzamine pretreatment on rat thoracic aorta strips
MEASUREMENT LABEL: Emax (%)
All answers are understood in %, so give the number only.

So what does the record say about Emax for `O=C(CCl)Nc1ccc(CC2=NCCN2)cc1` ?
41

Tell me the measured Emax of `S=C=Nc1ccc(Cc2ncc[nH]2)cc1` , please.
70

Endpoint output: Emax of `CN(C)CCc1ccc(N=C=S)cc1` . Value?
98

Param item = `S=C=Nc1ccc(CC2=NCCN2)cc1I` ; retrieve measured Emax.
31

What value of Emax has been recorded for this entry: `S=C=Nc1ccc(CC2=NCCN2)cc1`
118

Any idea what its Emax is? The compound is `Nc1ccc(CC2=NCCN2)cc1`
69

Looking for the measured Emax of `Cc1ccc(CC2=NCCN2)cc1` , can you help?
14

I have this compound here, `O=C(CI)Nc1ccc(CC2=NCCN2)cc1` , and I need its recorded Emax.
25

Endpoint output: Emax of `S=C=Nc1ccc(CCC2=NCCN2)cc1` . Value?
107

Consider the compound `S=C=Nc1ccc(OCC2=NCCN2)cc1` and give its measured Emax.
108

====

- Organism: Rattus norvegicus
- EXPERIMENTAL DETAILS: Concentration that produces 50% of the maximal response to compound in rat thoracic aorta strips in the presence of nifedipine
- Format: functional
Provide the reported pEC50 of each item.
Scale: negative log10 of molar concentration, which is what pEC50 denotes.

Could you tell me which pEC50 is on file for `S=C=Nc1ccc(CCC2=NCCN2)cc1` ?
4.17

Reported pEC50, molecule `S=C=Nc1ccc(Cc2ncc[nH]2)cc1` : ____
4.41

Suppose we examine the molecule `S=C=Nc1ccc(OCC2=NCCN2)cc1` ; what pEC50 value has been reported?
4.28

Which measured pEC50 value corresponds to `CN(C)CCc1ccc(N=C=S)cc1` ?
4.31

Requested field: pEC50. Item: `S=C=Nc1ccc(CC2=NCCN2)cc1`
4.70
